Data credit: patent US8835445B2

System: S. aureus
ASSAY PROTOCOL: Antibacterial activity (MIC), whole-cell bacterial growth inhibition
Format: cell-based, Staphylococcus aureus
RECORDED CONDITIONS: Staphylococcus aureus, S. aureus in 20% serum; read-out: MIC in μg/ml S. aureus in 20% serum
ENDPOINT LABEL: MIC (µg/mL)
Record the value in µg/mL, omitting the unit from your answer.

1) Nc1nc(N)c2ccc(-c3ccccc3N)cc2n1 ... 8

Which value of MIC has been reported for "CCOc1ccc(-c2cccc(NS(C)(=O)=O)c2)cc1-c1ccc2c(N)nc(N)nc2c1" in the records?
2

* * *

SYSTEM UNDER TEST: human DHFR (Homo sapiens (Human), UniProt P00374)
Sequence (P00374 whole entry): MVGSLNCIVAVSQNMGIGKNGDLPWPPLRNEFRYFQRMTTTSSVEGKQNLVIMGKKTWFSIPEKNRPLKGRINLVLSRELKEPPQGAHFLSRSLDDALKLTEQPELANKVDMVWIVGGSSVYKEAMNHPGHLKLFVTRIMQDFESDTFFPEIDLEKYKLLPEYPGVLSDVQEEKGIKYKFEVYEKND
ASSAY PROTOCOL: DHFR enzymatic inhibition (Ki), human DHFR
Assay type: biochemical
Ki strictly less than 300 nM = label 1. Otherwise label 0.

Known results for molecules:
1. COc1ccc2nc(-c3ccco3)n(-c3ccc4c(N)nc(N)nc4c3)c2n1 ... label 0
2. COc1cc2nc(-c3nccs3)n(-c3ccc4c(N)nc(N)nc4c3)c2cc1OC ... label 0
3. Cc1cc2nc(-c3nccs3)n(-c3cc4nc(N)nc(N)c4cc3Cl)c2cc1C [Compound 25] ... label 1
4. COc1cc2nc(-c3nccs3)n(-c3cc4nc(N)nc(N)c4cc3C)c2cc1OC ... label 1
5. Cc1cc2c(N)nc(N)nc2cc1-c1cnc2[nH]ccc2c1 ... label 1

Given "CC(=O)c1cccc(-c2cc3nc(N)nc(N)c3cc2C)c1" , is recorded Ki strictly lower than 300 nM?
label 1

Would you mind doing "Cc1cc2nc(N3CCOCC3)n(-c3ccc4c(N)nc(N)nc4c3)c2cc1C" as well?
label 0

Would you mind doing "COc1cc(-c2cc3nc(N)nc(N)c3cc2C)cc(OC)c1OC" as well?
label 1

Would you mind doing "Cc1cc2c(N)nc(N)nc2cc1-c1cc(N)cc(C#N)c1" as well?
label 1

Would you mind doing "COc1ccc(OC)c(-c2ccc3c(N)nc(N)nc3c2)c1" as well?
label 0

Would you mind doing "Cc1cc2nc(-c3ccsc3)n(-c3ccc4c(N)nc(N)nc4c3)c2cc1C" as well?
label 0

Would you mind doing "COc1ccc(-c2cc3nc(N)nc(N)c3cc2Cn2ccnc2)cc1OC" as well?
label 1

Would you mind doing "Cc1cc2nc(-c3nccs3)n(-c3ccc4c(N)nc(N)nc4c3)c2cc1C" as well?
label 1

Would you mind doing "COc1ncc(-c2cc3nc(N)nc(N)c3cc2C)c(OC)n1" as well?
label 1

Would you mind doing "Cc1cc2c(N)nc(N)nc2cc1-c1c[nH]c2ccccc12" as well?
label 1

Would you mind doing "COc1ccccc1-c1ccc2c(N)nc(N)nc2c1" as well?
label 0

Would you mind doing "CCOc1ccc(-c2cccc(NS(C)(=O)=O)c2)cc1-c1ccc2c(N)nc(N)nc2c1" as well?
label 1

Would you mind doing "COCCn1c(-c2ccc3c(N)nc(N)nc3c2)nc2cc(C)c(C)cc21" as well?
label 1

Would you mind doing "Cc1cc2nc(-c3nccs3)n(-c3cc4nc(N)nc(N)c4cc3C)c2cc1C" as well?
label 1

* * *

SYSTEM UNDER TEST: human DHFR (Homo sapiens (Human), UniProt P00374)
ASSAY PROTOCOL: DHFR enzymatic inhibition (Ki), human DHFR
Assay type: biochemical
Ki strictly less than 200 nM = label 1. Otherwise label 0.

1) Cc1cc2c(N)nc(N)nc2cc1-c1ccc(N)cc1 ... label 1
2) Cc1ccc2c(c1)nc(-c1cccs1)n2-c1ccc2c(N)nc(N)nc2c1 ... label 0
3) Nc1ccc(-c2ccc3c(N)nc(N)nc3c2)cc1 ... label 0
4) Cc1cc2c(N)nc(N)nc2cc1-c1cccc2[nH]ccc12 ... label 0
5) COc1ccc2nc(SCCC(C)(F)F)n(-c3ccc4c(N)nc(N)nc4c3)c2c1 ... label 0

Given "CC(=O)c1cccc(-c2ccc3c(N)nc(N)nc3c2)c1" , is recorded Ki strictly lower than 200 nM?
label 0

Would you mind doing "Cc1cc2nc(-c3cccs3)n(-c3ccc4c(N)nc(N)nc4c3)c2cc1C" as well?
label 0

Would you mind doing "CCOc1ccc2ccccc2c1-c1cc2nc(N)nc(N)c2cc1C" as well?
label 1

Would you mind doing "Cc1cc2nc(-c3ccccn3)n(-c3ccc4c(N)nc(N)nc4c3)c2cc1C" as well?
label 0

Would you mind doing "COc1cc(-c2cc3nc(N)nc(N)c3cc2C)c(Cl)cn1" as well?
label 1

Would you mind doing "COc1cc2nc(-c3nccs3)n(-c3cc4nc(N)nc(N)c4cc3Cl)c2cc1OC" as well?
label 0

Would you mind doing Cc1cc2nc(-c3nccs3)n(-c3cc4nc(N)nc(N)c4cc3Cl)c2cc1C [Compound 34] as well?
label 1

Would you mind doing "CCOc1ccc(C(=O)N(CC)CC)cc1-c1cc2nc(N)nc(N)c2cc1C" as well?
label 1

Would you mind doing "Nc1nc(N)c2ccc(-c3ccccc3N)cc2n1" as well?
label 0

Would you mind doing "Cc1cc2c(N)nc(N)nc2cc1-c1cccc(CC#N)c1" as well?
label 1

Would you mind doing "Cc1cc2nc(C3CC3)n(-c3ccc4c(N)nc(N)nc4c3)c2cc1C" as well?
label 0

Would you mind doing "COc1cnc(Cl)cc1-c1cc2nc(N)nc(N)c2cc1C" as well?
label 1

Would you mind doing "COc1ccc(OC)c(-c2cc3nc(N)nc(N)c3cc2C)c1" as well?
label 1

Would you mind doing "Cc1cc2c(N)nc(N)nc2cc1-c1cccc(C#N)c1" as well?
label 1

Would you mind doing "COC(=O)c1ccc2c(c1)nc(-c1nccs1)n2-c1ccc2c(N)nc(N)nc2c1" as well?
label 1

* * *

SYSTEM UNDER TEST: S. aurues DHFR (Staphylococcus aureus)
ASSAY PROTOCOL: biochemical
Type: biochemical
RECORDED CONDITIONS: S. aureus DHFR
ENDPOINT LABEL: log10 of Ki (log10 of the value in nM)
On a log10 scale: recorded Ki, unit nM.

Which value of log10 of Ki has been reported for "COC(=O)c1ccc2c(c1)nc(-c1nccs1)n2-c1ccc2c(N)nc(N)nc2c1" in the records?
-1.68

Would you mind doing "COc1ccc2nc(-c3ccco3)n(-c3ccc4c(N)nc(N)nc4c3)c2n1" as well?
-1.41

Would you mind doing "Cc1ccc2c(c1)nc(-c1cccs1)n2-c1ccc2c(N)nc(N)nc2c1" as well?
-2.30

Would you mind doing "COc1ccc2nc(SCCC(C)(F)F)n(-c3ccc4c(N)nc(N)nc4c3)c2c1" as well?
-0.92

Would you mind doing "Cc1cc2c(N)nc(N)nc2cc1-c1cnc2[nH]ccc2c1" as well?
0.41

Would you mind doing Cc1cc2nc(-c3nccs3)n(-c3cc4nc(N)nc(N)c4cc3Cl)c2cc1C [Compound 34] as well?
-1.80

Would you mind doing "COc1ncc(-c2cc3nc(N)nc(N)c3cc2C)c(OC)n1" as well?
-0.40

* * *

Tested on: S. aureus
ASSAY PROTOCOL: Antibacterial activity (MIC), whole-cell bacterial growth inhibition
Type: cell-based, Staphylococcus aureus
RECORDED CONDITIONS: Staphylococcus aureus, S. aureus in 20% serum; read-out: MIC in μg/ml S. aureus in 20% serum
MIC strictly less than 1 µg/mL = true (1). Otherwise false (0).

1) COc1ccc2nc(SCCC(C)(F)F)n(-c3ccc4c(N)nc(N)nc4c3)c2c1 ... false (0)
2) COC(=O)c1ccc2c(c1)nc(-c1nccs1)n2-c1ccc2c(N)nc(N)nc2c1 ... false (0)
3) COc1cc2nc(-c3nccs3)n(-c3cc4nc(N)nc(N)c4cc3C)c2cc1OC ... true (1)
4) Cc1cc2nc(-c3nccs3)n(-c3cc4nc(N)nc(N)c4cc3C)c2cc1C ... true (1)
5) COCCn1c(-c2ccc3c(N)nc(N)nc3c2)nc2cc(C)c(C)cc21 ... false (0)
6) Cc1c(C(=O)OC(C)(C)C)nc(-c2cccs2)n1-c1ccc2c(N)nc(N)nc2c1 ... false (0)
7) COc1cc2nc(-c3nccs3)n(-c3ccc4c(N)nc(N)nc4c3)c2cc1OC ... true (1)
8) CC(=O)c1cccc(-c2ccc3c(N)nc(N)nc3c2)c1 ... false (0)

Here is the next item to consider.
Given "CCOc1ccc(C(=O)N(CC)CC)cc1-c1cc2nc(N)nc(N)c2cc1C" , is recorded MIC strictly lower than 1 µg/mL?
true (1)

* * *

SYSTEM UNDER TEST: S. aurues DHFR (Staphylococcus aureus, UniProt P0A017)
ASSAY PROTOCOL: biochemical
Format: biochemical
ENDPOINT LABEL: Ki (nM)
Record the value in nM, omitting the unit from your answer.

Example results:
1. Cc1cc2nc(-c3nccs3)n(-c3cc4nc(N)nc(N)c4cc3C)c2cc1C ... 0.03
2. COc1ccc(OC)c(-c2ccc3c(N)nc(N)nc3c2)c1 ... 4
3. COc1ccc(OC)c(-c2cc3nc(N)nc(N)c3cc2C)c1 ... 0.66

// switching to the query molecule
Which value of Ki has been reported for "COc1ccccc1-c1ccc2c(N)nc(N)nc2c1" in the records?
2.7
